Test: Stability of the theaflavins under the DXR assay conditions (HPLC)
Assay type: physicochemical
Conditions: 100 μM before incubation; 50 mM Tris-HCl pH 7.4, 37 °C, 35 min; 2 mM VC
Here the recorded Concentration after incubation in the presence of 2 mM VC is given for each entry.
Record the value in µM, omitting the unit from your answer.

O=C(O[C@@H]1Cc2c(O)cc(O)cc2O[C@@H]1c1cc(O)c(=O)c2c(O)c(O)cc([C@H]3Oc4cc(O)cc(O)c4C[C@H]3O)c2c1)c1cc(O)c(O)c(O)c1 [TF3′G, theaflavin-3′-gallate] : 98.08
O=C(O[C@@H]1Cc2c(O)cc(O)cc2O[C@@H]1c1cc(O)c(O)c2c(=O)c(O)cc([C@H]3Oc4cc(O)cc(O)c4C[C@H]3O)cc12)c1cc(O)c(O)c(O)c1 : 98.15
O=C(O[C@@H]1Cc2c(O)cc(O)cc2O[C@@H]1c1cc(O)c(=O)c2c(O)c(O)cc([C@H]3Oc4cc(O)cc(O)c4C[C@H]3OC(=O)c3cc(O)c(O)c(O)c3)c2c1)c1cc(O)c(O)c(O)c1 [TF3,3′G, theaflavin-3,3′-digallate] : 96.72

Turning now to a further record.
Entry under review: O=c1c(O)cc([C@H]2Oc3cc(O)cc(O)c3C[C@H]2O)cc2c([C@H]3Oc4cc(O)cc(O)c4C[C@H]3O)cc(O)c(O)c12 . Reported Concentration after incubation in the presence of 2 mM VC?
98.97

====

Assay: Particle size analysis by dynamic light scattering (DLS)
Assay type: physicochemical
Conditions: 50 mM Tris-HCl pH 7.4, 2 mM VC, 2% DMSO; conc: TF 500, TF3G 100, TF3′G 100, TF3,3′G 70, baicalein 200 μM
Experimental: DLS is a widely utilized technique in materials science to measure particle sizes in solutions[20][21]. […] Baicalein was referenced as a positive control owing to the same reason as mentioned above. […] The particle size of the theaflavin compounds and baicalein in Tris-HCl buffer (50 mM, pH 7.4) containing 2 mM VC and 2.0% DMSO (V/V) was measured in the absence and presence of DXR (final concentration: 4 μg/mL) on a DLS analyzer (NICOMP-380, Particle Sizing Systems, Inc., Santa Barbara, Calif., USA). […]
Measurement name: DLS Count Rate, without DXR (KHz)
Record the value in KHz, omitting the unit from your answer.

A selection of reference data follows.
O=c1c(O)cc([C@H]2Oc3cc(O)cc(O)c3C[C@H]2O)cc2c([C@H]3Oc4cc(O)cc(O)c4C[C@H]3O)cc(O)c(O)c12 : 2.2
O=C(O[C@@H]1Cc2c(O)cc(O)cc2O[C@@H]1c1cc(O)c(O)c2c(=O)c(O)cc([C@H]3Oc4cc(O)cc(O)c4C[C@H]3O)cc12)c1cc(O)c(O)c(O)c1 : 2.6
O=C(O[C@@H]1Cc2c(O)cc(O)cc2O[C@@H]1c1cc(O)c(=O)c2c(O)c(O)cc([C@H]3Oc4cc(O)cc(O)c4C[C@H]3O)c2c1)c1cc(O)c(O)c(O)c1 [TF3′G, theaflavin-3′-gallate] : 1.4
O=c1cc(-c2ccccc2)oc2cc(O)c(O)c(O)c12 [Baicalein, baicalein, reference compound] : 2.6

Turning now to a further record.
Entry under review: O=C(O[C@@H]1Cc2c(O)cc(O)cc2O[C@@H]1c1cc(O)c(=O)c2c(O)c(O)cc([C@H]3Oc4cc(O)cc(O)c4C[C@H]3OC(=O)c3cc(O)c(O)c(O)c3)c2c1)c1cc(O)c(O)c(O)c1 [TF3,3′G, theaflavin-3,3′-digallate] . Reported DLS Count Rate, without DXR?
2.2

====

Test: Stability of the theaflavins under the DXR assay conditions (HPLC)
Format: physicochemical
Settings: 100 μM before incubation; 50 mM Tris-HCl pH 7.4, 37 °C, 35 min; no VC
Procedure: The theaflavins are unstable compounds, especially under a basic condition. […] Stability of the theaflavins in Tris-HCl buffer was evaluated using an Agilent 1200 HPLC equipped with a DAD detector. […] The mixtures were subsequently incubated at 37 °C for 35 min before they were centrifuged at 6000 rpm for 3 min and analyzed. […]
Measurement name: Concentration after incubation in the absence of 2 mM VC
Write the numeric value and follow it with the unit.

A selection of reference data follows.
O=c1c(O)cc([C@H]2Oc3cc(O)cc(O)c3C[C@H]2O)cc2c([C@H]3Oc4cc(O)cc(O)c4C[C@H]3O)cc(O)c(O)c12 : 63.01 ± 3.73 µM
O=C(O[C@@H]1Cc2c(O)cc(O)cc2O[C@@H]1c1cc(O)c(=O)c2c(O)c(O)cc([C@H]3Oc4cc(O)cc(O)c4C[C@H]3OC(=O)c3cc(O)c(O)c(O)c3)c2c1)c1cc(O)c(O)c(O)c1 [TF3,3′G, theaflavin-3,3′-digallate] : 55.26 ± 4.32 µM
O=C(O[C@@H]1Cc2c(O)cc(O)cc2O[C@@H]1c1cc(O)c(=O)c2c(O)c(O)cc([C@H]3Oc4cc(O)cc(O)c4C[C@H]3O)c2c1)c1cc(O)c(O)c(O)c1 [TF3′G, theaflavin-3′-gallate] : 61.17 ± 4.29 µM

Entry under review: O=C(O[C@@H]1Cc2c(O)cc(O)cc2O[C@@H]1c1cc(O)c(O)c2c(=O)c(O)cc([C@H]3Oc4cc(O)cc(O)c4C[C@H]3O)cc12)c1cc(O)c(O)c(O)c1 . Reported Concentration after incubation in the absence of 2 mM VC?
60.88 ± 2.77 µM

====

Biological target: E. coli DXR (Escherichia coli, UniProt P45568)
Construct: made in house
Sequence (P45568 whole entry): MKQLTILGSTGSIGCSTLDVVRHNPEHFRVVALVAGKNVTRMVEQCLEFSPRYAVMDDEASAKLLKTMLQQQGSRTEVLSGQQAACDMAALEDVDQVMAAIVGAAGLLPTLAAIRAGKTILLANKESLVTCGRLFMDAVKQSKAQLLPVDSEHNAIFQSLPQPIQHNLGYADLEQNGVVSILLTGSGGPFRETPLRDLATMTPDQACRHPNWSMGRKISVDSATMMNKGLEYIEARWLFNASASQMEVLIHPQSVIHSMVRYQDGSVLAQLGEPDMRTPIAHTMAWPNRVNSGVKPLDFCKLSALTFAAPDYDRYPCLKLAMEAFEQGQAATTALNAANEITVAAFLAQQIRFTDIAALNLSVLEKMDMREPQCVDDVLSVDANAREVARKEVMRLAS
Test: Inhibition kinetics against DXR (Lineweaver-Burk plots)
Assay type: biochemical
Conditions: DXP as varied substrate, 0.5 mM NADPH, 2 μg/mL DXR; read-out: Ki (DXP)
Measurement name: Ki
Write the numeric value and follow it with the unit.

A selection of reference data follows.
O=c1c(O)cc([C@H]2Oc3cc(O)cc(O)c3C[C@H]2O)cc2c([C@H]3Oc4cc(O)cc(O)c4C[C@H]3O)cc(O)c(O)c12 : 107 µM
O=C(O[C@@H]1Cc2c(O)cc(O)cc2O[C@@H]1c1cc(O)c(=O)c2c(O)c(O)cc([C@H]3Oc4cc(O)cc(O)c4C[C@H]3O)c2c1)c1cc(O)c(O)c(O)c1 [TF3′G, theaflavin-3′-gallate] : 22.2 µM

Turning now to a further record.
What Ki appears in the records for this compound with E. coli DXR (Escherichia coli, UniProt P45568)? O=C(O[C@@H]1Cc2c(O)cc(O)cc2O[C@@H]1c1cc(O)c(O)c2c(=O)c(O)cc([C@H]3Oc4cc(O)cc(O)c4C[C@H]3O)cc12)c1cc(O)c(O)c(O)c1
30.2 µM

====

Assay: Particle size analysis by dynamic light scattering (DLS)
Type: physicochemical
Conditions: 50 mM Tris-HCl pH 7.4, 2 mM VC, 2% DMSO, 4 μg/mL DXR; conc: TF 500, TF3G 100, TF3′G 100, TF3,3′G 70, baicalein 200 μM
Here the recorded DLS Count Rate, with 4 μg/mL DXR is given for each entry.
Record the value in KHz, omitting the unit from your answer.

A selection of reference data follows.
O=C(O[C@@H]1Cc2c(O)cc(O)cc2O[C@@H]1c1cc(O)c(=O)c2c(O)c(O)cc([C@H]3Oc4cc(O)cc(O)c4C[C@H]3O)c2c1)c1cc(O)c(O)c(O)c1 [TF3′G, theaflavin-3′-gallate] : 5.2
O=c1c(O)cc([C@H]2Oc3cc(O)cc(O)c3C[C@H]2O)cc2c([C@H]3Oc4cc(O)cc(O)c4C[C@H]3O)cc(O)c(O)c12 : 5.8

Entry under review: O=c1cc(-c2ccccc2)oc2cc(O)c(O)c(O)c12 [Baicalein, baicalein, reference compound] . Reported DLS Count Rate, with 4 μg/mL DXR?
296

Entry under review: O=C(O[C@@H]1Cc2c(O)cc(O)cc2O[C@@H]1c1cc(O)c(=O)c2c(O)c(O)cc([C@H]3Oc4cc(O)cc(O)c4C[C@H]3OC(=O)c3cc(O)c(O)c(O)c3)c2c1)c1cc(O)c(O)c(O)c1 [TF3,3′G, theaflavin-3,3′-digallate] . Reported DLS Count Rate, with 4 μg/mL DXR?
4.8

Entry under review: O=C(O[C@@H]1Cc2c(O)cc(O)cc2O[C@@H]1c1cc(O)c(O)c2c(=O)c(O)cc([C@H]3Oc4cc(O)cc(O)c4C[C@H]3O)cc12)c1cc(O)c(O)c(O)c1 . Reported DLS Count Rate, with 4 μg/mL DXR?
4.6

====

Please consider the recorded IC50 for E. coli DXR (Escherichia coli, UniProt P45568) in what follows.
Record the value in µM, omitting the unit from your answer.

A selection of reference data follows.
O=C(O[C@@H]1Cc2c(O)cc(O)cc2O[C@@H]1c1cc(O)c(O)c2c(=O)c(O)cc([C@H]3Oc4cc(O)cc(O)c4C[C@H]3O)cc12)c1cc(O)c(O)c(O)c1 [TF3G] : 29.2
O=C(O[C@@H]1Cc2c(O)cc(O)cc2O[C@@H]1c1cc(O)c(=O)c2c(O)c(O)cc([C@H]3Oc4cc(O)cc(O)c4C[C@H]3O)c2c1)c1cc(O)c(O)c(O)c1 [TF3′G, theaflavin-3′-gallate] : 23.7

What IC50 appears in the records for this compound with E. coli DXR (Escherichia coli, UniProt P45568)? O=c1c(O)cc([C@H]2Oc3cc(O)cc(O)c3C[C@H]2O)cc2c([C@H]3Oc4cc(O)cc(O)c4C[C@H]3O)cc(O)c(O)c12 [TF, theaflavin]
162
